Parameter IC50, tested on Glycogen synthase kinase-3 alpha (Homo sapiens), listed per item.

// recorded IC50 for CC[C@@]1(c2cccc([C@@H](C)c3ncccn3)c2)C2=CN=NC2NC2=C1C(=O)CC(C)(C)C2 (stereo partly specified) [US20250313563, Compound 948061] : 100 to 1000 nM

// recorded IC50 for CCC1(c2cccc(CN(C)C(=O)COC)c2)C2=CN=NC2NC2=C1C(=O)CC(C)(C)C2 (stereo unspecified) [US20250313563, Compound 865196] : 100 to 1000 nM

// recorded IC50 for CCC1(c2cccc(-c3ccnc(C)c3F)c2)C2=C(CC(C)(C)NC2=O)NC2N=NC(C(F)(F)F)=C21 (stereo unspecified) [US20250313563, Compound 948297] : < 100 nM

// recorded IC50 for CC[C@]1(c2ccccc2)C2=CN=NC2NC2=C1C(=O)[C@H](C)C[C@@H]2C (stereo partly specified) [US20250313563, Compound 909216] : 100 to 1000 nM

// recorded IC50 for CC[C@@]1(c2cccc(-c3cnn(C(F)F)c3)c2)C2=CN=NC2NC2=C1C(=O)NC(C)(C)C2 (stereo partly specified) [US20250313563, Compound 950254] : < 100 nM

// recorded IC50 for CC[C@@]1(c2cccc(S(C)(=O)=O)c2)C2=C(CC(C)(C)NC2=O)NC2N=NC(C)=C21 (stereo partly specified) [US20250313563, Compound 947815] : 1000 to 5000 nM

###

- Assay System: Glycogen synthase kinase-3 alpha (Homo sapiens, UniProt P49840)
- Sequence (P49840 whole entry): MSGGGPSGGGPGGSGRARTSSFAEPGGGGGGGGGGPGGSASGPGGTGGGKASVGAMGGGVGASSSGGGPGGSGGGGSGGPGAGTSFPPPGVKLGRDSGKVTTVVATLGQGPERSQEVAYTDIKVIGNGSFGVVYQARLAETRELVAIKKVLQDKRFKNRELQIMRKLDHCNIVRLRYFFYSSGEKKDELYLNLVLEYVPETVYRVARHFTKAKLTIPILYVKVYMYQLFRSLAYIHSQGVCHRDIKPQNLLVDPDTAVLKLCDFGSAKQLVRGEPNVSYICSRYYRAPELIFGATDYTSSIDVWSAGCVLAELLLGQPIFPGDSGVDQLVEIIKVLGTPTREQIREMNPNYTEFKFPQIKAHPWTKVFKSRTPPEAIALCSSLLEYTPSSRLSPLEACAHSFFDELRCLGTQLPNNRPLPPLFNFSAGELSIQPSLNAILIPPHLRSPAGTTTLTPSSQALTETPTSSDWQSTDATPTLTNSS
- Assay Procedure: TR-FRET Assay
Quantity: IC50

// recorded IC50 for CC1(C)CC(=O)C2=C(C1)NC1=C(CN=N1)[C@]21CCCN(S(=O)(=O)C2CC2)CC1 [US20250313563, Compound 932659] : < 0.1 µM

// recorded IC50 for CC[C@@]1(c2cccc(Br)c2)C2=C(C[C@H](C)CC2=O)NC2N=NC(C(F)(F)F)=C21 (stereo partly specified) [US20250313563, Compound 828850] : 0.1 to 1 µM

// recorded IC50 for CC[C@@]1(c2cccc(-c3ccnc(C)c3)c2)C2=C(N=NC2)NC2=C1C(=O)[C@H]1CC[C@@H]2C1 [US20250313563, Compound 943916] : < 0.1 µM

// recorded IC50 for CC1(C)CC(=O)C2=C(C1)NC1=C(CN=N1)C21CN(c2ccncn2)C1 [US20250313563, Compound 909209] : 1 to 5 µM

// recorded IC50 for CCC1(c2cccc(N(C)C(=O)C3CCN(C)CC3)c2)C2=CN=NC2NC2=C1C(=O)CC(C)(C)C2 (stereo unspecified) [US20250313563, Compound 912167] : 0.1 to 1 µM

// recorded IC50 for CC[C@]1(c2cccc(S(=O)(=O)C3CCCCC3)c2)C2=CN=NC2NC2=C1C(=O)CC(C)(C)C2 (stereo partly specified) [US20250313563, Compound 943547] : 1 to 5 µM

// recorded IC50 for CCC1(c2cccc(Oc3cncnc3)c2)C2=CN=NC2NC2=C1C(=O)CC(C)(C)C2 (stereo unspecified) [US20250313563, Compound 917212] : < 0.1 µM

// recorded IC50 for CC1(C)CC(=O)C2=C(C1)NC1=C(CN=N1)C21CN(c2ccncc2)C1 [US20250313563, Compound 912077] : > 5 µM

// recorded IC50 for C[C@H]1CC(=O)C2=C(C1)NC1=C(CN=N1)[C@@]2(C)c1ccccc1 [US20250313563, Compound 789334] : 0.1 to 1 µM

// recorded IC50 for CC[C@@]1(c2ccccc2)C2=CN=NC2NC2=C1C(=O)[C@H](F)C(C)(C)C2 (stereo partly specified) [US20250313563, Compound 957404] : > 5 µM

// recorded IC50 for CC[C@@]1(c2cccc(-c3ccncc3F)c2)C2=C(CC(C)(C)NC2=O)NC2N=NC(C(F)F)=C21 (stereo partly specified) [US20250313563, Compound 951599] : 0.1 to 1 µM

// recorded IC50 for CC[C@@]1(c2cccc(S(C)(=O)=O)c2)C2=C(CC(C)(C)NC2=O)NC2N=NC(C(F)(F)F)=C21 (stereo partly specified) [US20250313563, Compound 948422] : 0.1 to 1 µM

// recorded IC50 for CC1(C)CC(=O)C2=C(C1)NC1=C(CN=N1)C21CCN(S(=O)(=O)c2cnn(CCF)c2)CC1 [US20250313563, Compound 947903] : < 0.1 µM

// recorded IC50 for CC[C@@]1(c2cccc(C(F)(F)F)c2)C2=C(N=NC2)NC2=C1C(=O)N(Cc1ccccc1)[C@@H]2C [US20250313563, Compound 930332] : 1 to 5 µM

// recorded IC50 for CC[C@@]1(c2cccc(-c3cnn(C)c3F)c2)C2=CN=NC2NC2=C1C(=O)NC(C)(C)C2 (stereo partly specified) [US20250313563, Compound 950562] : < 0.1 µM

// recorded IC50 for CCC1(c2cccc(-c3cnn4c3CCCC4)c2)C2=CN=NC2NC2=C1C(=O)CC(C)(C)C2 (stereo unspecified) [US20250313563, Compound 926836] : < 0.1 µM

// recorded IC50 for CC[C@]1(c2cccc(-c3cnn(-c4cccnc4)c3)c2)C2=CN=NC2NC2=C1C(=O)NC(C)(C)C2 (stereo partly specified) [US20250313563, Compound 949515] : > 5 µM

// recorded IC50 for CC1(C)CC(=O)C2=C(C1)NC1=C(CN=N1)C21CCN(S(=O)(=O)c2ccccc2F)CC1 [US20250313563, Compound 901465] : < 0.1 µM

// recorded IC50 for CC[C@]1(c2cccc(-c3c4c(cn3C)CCCC4)c2)C2=CN=NC2NC2=C1C(=O)NC(C)(C)C2 (stereo partly specified) [US20250313563, Compound 948655] : < 0.1 µM

// recorded IC50 for CC[C@@]1(c2cccc(-c3cc(C4CCCC4)nn3C)c2)C2=CN=NC2NC2=C1C(=O)NC(C)(C)C2 (stereo partly specified) [US20250313563, Compound 952023] : 0.1 to 1 µM

// recorded IC50 for CCC1(c2cccc(-c3ccnc(OC)c3)c2)C2=CN=NC2NC2=C1C(=O)CC(C)(C)C2 (stereo unspecified) [US20250313563, Compound 883850] : < 0.1 µM

// recorded IC50 for CC[C@]1(c2cccc(-c3ccncc3C(F)(F)F)c2)C2=CN=NC2NC2=C1C(=O)NC(C)(C)C2 (stereo partly specified) [US20250313563, Compound 949516] : 1 to 5 µM

// recorded IC50 for C[C@@H]1CCC[C@]2(C1)C1=C(N=NC1)NC1=C2C(=O)CC(C)(C)C1 [US20250313563, Compound 893320] : < 0.1 µM

// recorded IC50 for CC[C@]1(c2ccccc2)C2=CN=NC2NC2=C1C(=O)C[C@]1(CCN(C)C1=O)C2 (stereo partly specified) [US20250313563, Compound 949760] : 0.1 to 1 µM

// recorded IC50 for CC1(C)CC(=O)C2=C(C1)NC1=C(CN=N1)[C@@]21COC2(CN(S(C)(=O)=O)C2)C1 [US20250313563, Compound 913057] : < 0.1 µM

// recorded IC50 for CC[C@]1(c2ccccc2)C2=CN=NC2NC2=C1C(=O)CC1(CCC1)C2 (stereo partly specified) [US20250313563, Compound 819573] : < 0.1 µM

###

Can you tell me pIC50 for the items I'm about to list?
pIC50: −log10 of the molar value.

pIC50 for Glycogen synthase kinase-3 beta (Homo sapiens) with input COc1cccc(S(=O)(=O)N2CC[C@@]3(C2)C2=C(N=NC2)NC2=C3C(=O)CC(C)(C)C2)c1 equals 6.00 to 7.00

pIC50 for Glycogen synthase kinase-3 beta (Homo sapiens) with input CC[C@@H]1C[C@]2(CCO1)C1=C(N=NC1)NC1=C2C(=O)CC(C)(C)C1 equals 6.00 to 7.00

pIC50 for Glycogen synthase kinase-3 beta (Homo sapiens) with input CC[C@]1(c2cccc(-c3ccncc3C)c2)C2=CN=NC2NC2=C1C(=O)CC(C)(C)C2 (stereo partly specified) equals 6.00 to 7.00

pIC50 for Glycogen synthase kinase-3 beta (Homo sapiens) with input CC1(C)CC(=O)C2=C(C1)NC1=NN=C(Br)C1C21CCNc2ccccc21 (stereo unspecified) equals < 5.30

pIC50 for Glycogen synthase kinase-3 beta (Homo sapiens) with input CC[C@]1(c2cccc(-c3ccnc(C)c3)c2)C2=CN=NC2NC2=C1C(=O)[C@@H](F)C(C)(C)C2 (stereo partly specified) equals < 5.30

pIC50 for Glycogen synthase kinase-3 beta (Homo sapiens) with input CC[C@]1(c2cccc(C(F)(F)F)c2)C2=CN=NC2NC2=C1C(=O)N(c1cccc(C)c1)CC2 (stereo partly specified) equals 6.00 to 7.00

Values were extracted from BindingDB's records for patent US20250313563.
